Test system: carbapenem resistant Acinetobacter baumannii
measurement_notes: MIC of antibiotics with Compound 1 against panel of 503 carbapenem resistant Acinetobacter baumannii clinical isolates
Type: cell-based
particulars: carbapenem resistant Acinetobacter baumannii (N = 503); antibiotic alone
value_kind: MIC90

* CC(C)(O/N=C(\C(=O)N[C@@H]1C(=O)N2C(C(=O)[O-])=C(C[N+]3(CCNC(=O)c4ccc(O)c(O)c4Cl)CCCC3)CS[C@H]12)c1csc(N)n1)C(=O)O | 32 µg/mL
* C[C@@H](O)[C@H]1C(=O)N2C(C(=O)O)=C(S[C@@H]3CN[C@H](C(=O)N(C)C)C3)[C@H](C)[C@H]12 | > 32 µg/mL
* Cn1c(N)c(NC(=O)NCCN)c[n+]1CC1=C(C(=O)O)N2C(=O)[C@@H](NC(=O)/C(=N\OC(C)(C)C(=O)[O-])c3nsc(N)n3)[C@H]2SC1 | > 32 µg/mL
* CO/N=C(\C(=O)N[C@@H]1C(=O)N2C(C(=O)[O-])=C(C[N+]3(C)CCCC3)CS[C@H]12)c1csc(N)n1 [FEP, cefepime] | > 32 µg/mL

###

Test system: carbapenem resistant Enterobacteriaceae (CRE)
measurement_notes: MIC of antibiotics with Compound 1 against panel of 510 CRE clinical isolates
Format: cell-based
particulars: non-carbapenemase producing CRE, N = 45; antibiotic alone
Method: In this example, the antibiotics meropenem, cefepime, ceftolozane and cefiderocol, were tested in combination with Compound 1 at 4 μg/ml and 8 μg/ml against a panel of 510 clinical isolates representing various types of carbapenem resistant Enterobacteriaceae (CRE). Cefiderocol was tested at standard conditions, in […] media.
value_kind: MIC50 (µg/mL)

- C[C@@H](O)[C@H]1C(=O)N2C(C(=O)O)=C(S[C@@H]3CN[C@H](C(=O)N(C)C)C3)[C@H](C)[C@H]12 [MER, meropenem]: 8
- CC(C)(O/N=C(\C(=O)N[C@@H]1C(=O)N2C(C(=O)[O-])=C(C[N+]3(CCNC(=O)c4ccc(O)c(O)c4Cl)CCCC3)CS[C@H]12)c1csc(N)n1)C(=O)O [DER, cefiderocol]: 2

###

# maps each entry to its MIC50
System: carbapenem resistant Acinetobacter baumannii
measurement_notes: MIC of antibiotics with Compound 1 against panel of 503 carbapenem resistant Acinetobacter baumannii clinical isolates
Assay type: cell-based
particulars: carbapenem resistant Acinetobacter baumannii (N = 503); antibiotic alone
Description: In another experiment, various antibiotics, meropenem, cefepime, ceftolozane and cefiderocol, were tested in combination with Compound 1 at 4 μg/ml and 8 μg/ml against the panel of 503 clinical isolates of carbapenem resistant Acinetobacter baumannii. […] Cefiderocol was tested at standard conditions, in […] media.
value_kind: MIC50

• Cn1c(N)c(NC(=O)NCCN)c[n+]1CC1=C(C(=O)O)N2C(=O)[C@@H](NC(=O)/C(=N\OC(C)(C)C(=O)[O-])c3nsc(N)n3)[C@H]2SC1 = > 32 µg/mL
• C[C@@H](O)[C@H]1C(=O)N2C(C(=O)O)=C(S[C@@H]3CN[C@H](C(=O)N(C)C)C3)[C@H](C)[C@H]12 = > 32 µg/mL
• CC(C)(O/N=C(\C(=O)N[C@@H]1C(=O)N2C(C(=O)[O-])=C(C[N+]3(CCNC(=O)c4ccc(O)c(O)c4Cl)CCCC3)CS[C@H]12)c1csc(N)n1)C(=O)O = 1 µg/mL
